- run.description: amyloid nucleation score (Sup35N fusion, yeast selection) (log enrichment); library NNK3; higher = more nucleation; inactive = no reads after selection;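 further: zero at mode of non-aggregating sequences after 7 days selection at 30°C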
readout.name: amyloid nucleation score

Consider the worked cases shown below.
{"substance": "LTASYSFVTTVGYSGLDLKV", "amyloid nucleation score": "inactive"}
{"substance": "CKGLIFISSFANVVLN", "amyloid nucleation score": 1.52}
{"substance": "VTRMDGYVAFISNHSFKSVY", "amyloid nucleation score": 1.36}
{"substance": "VGIALASIK", "amyloid nucleation score": "inactive"}
{"substance": "IRLDSYLDNMSMLLCKYWFC", "amyloid nucleation score": "inactive"}
{"substance": "VFLPGRSIKWFLMAEKLRNH", "amyloid nucleation score": "inactive"}
{"substance": "TRLGYKKGFFMTSSSHRLMV", "amyloid nucleation score": "inactive"}
{"substance": "RPVTPC", "amyloid nucleation score": "inactive"}

Prompt line: Which value of amyloid nucleation score has been reported for SREFSGCNNV in the records?
Response line: inactive

Prompt line: Which value of amyloid nucleation score has been reported for DRHSRCQ in the records?
Response line: inactive

Data provenance: the supplement of paper PMC12042874
